# Test system: Hs578T multi-cell spheroids, viability
# method: Anticancer human tumor Hs578T cell line growth inhibition [IpAb];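 further: drug exposure lasted 7 days before readout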
# appliedConditions: second compound 0.0316 µM; first compound 0.1 µM; stronger effect = lower value
Each entry below lists one item and its recorded viability, T/C value.
Give your result in % as a bare value.

C=CC(=O)N1CCN(c2nc(=O)n(-c3c(C)ccnc3C(C)C)c3nc(-c4c(O)cccc4F)c(F)cc23)C(C)C1 (configuration not stated) + CCN1CCN(Cc2ccc(Nc3ncc(F)c(-c4cc(F)c5nc(C)n(C(C)C)c5c4)n3)nc2)CC1 ... 97.2

Now take the following compound into account.
Return the recorded viability, T/C value; entry: CC1(C)CCC(CN2CCN(c3ccc(C(=O)NS(=O)(=O)c4ccc(NCC5CCOCC5)c([N+](=O)[O-])c4)c(Oc4cnc5[nH]ccc5c4)c3)CC2)=C(c2ccc(Cl)cc2)C1 + CCN1CCN(Cc2ccc(Nc3ncc(F)c(-c4cc(F)c5nc(C)n(C(C)C)c5c4)n3)nc2)CC1
97

* * *

# Tested on: Hs578T multi-cell spheroids, viability
# method: Anticancer human tumor Hs578T cell line growth inhibition [IpAb];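 further: drug exposure lasted 7 days before readout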
# appliedConditions: second compound 0.316 µM; first compound 0.001 µM; stronger effect = lower value
experimentalReadout: viability, T/C (%)
Just the number in %, nothing appended.

Cn1ncnc1[C@H]1c2n[nH]c(=O)c3cc(F)cc(c23)N[C@@H]1c1ccc(F)cc1 + CC(C)NCC(C(=O)N1CCN(c2ncnc3c2C(C)CC3O)CC1)c1ccc(Cl)cc1 ... 79.5
Cn1ncnc1[C@H]1c2n[nH]c(=O)c3cc(F)cc(c23)N[C@@H]1c1ccc(F)cc1 + CCN1CCN(Cc2ccc(Nc3ncc(F)c(-c4cc(F)c5nc(C)n(C(C)C)c5c4)n3)nc2)CC1 ... 88.2
CC(C)n1nc(-c2ccc3oc(N)nc3c2)c2c(N)ncnc21 + CCN1CCN(Cc2ccc(Nc3ncc(F)c(-c4cc(F)c5nc(C)n(C(C)C)c5c4)n3)nc2)CC1 ... 76.2

// next entry
# return recorded viability, T/C for input CC(C)n1nc(-c2ccc3oc(N)nc3c2)c2c(N)ncnc21 + CC(C)NCC(C(=O)N1CCN(c2ncnc3c2C(C)CC3O)CC1)c1ccc(Cl)cc1
72.4

* * *

# System: Hs578T multi-cell spheroids, viability
# method: Anticancer human tumor Hs578T cell line growth inhibition [IpAb];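 further: drug exposure lasted 7 days before readout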
# appliedConditions: second compound 0.316 µM; first compound 3 µM; stronger effect = lower value
Here, each record is paired with measured viability, T/C data.

Worked examples, 3 compounds total:
CC(C)(C)c1cnc(CSc2cnc(NC(=O)C3CCNCC3)s2)o1 + CC(C)NCC(C(=O)N1CCN(c2ncnc3c2C(C)CC3O)CC1)c1ccc(Cl)cc1 ... 2.23%
Cn1cnc2c(F)c(Nc3ccc(Br)cc3Cl)c(C(=O)NOCCO)cc21 + CC(C)NCC(C(=O)N1CCN(c2ncnc3c2C(C)CC3O)CC1)c1ccc(Cl)cc1 ... 30.4%
CC(C)(C)c1cnc(CSc2cnc(NC(=O)C3CCNCC3)s2)o1 + CCN1CCN(Cc2ccc(Nc3ncc(F)c(-c4cc(F)c5nc(C)n(C(C)C)c5c4)n3)nc2)CC1 ... 3.59%

Below: the item to evaluate.
Return viability, T/C for the following compound: Cn1cnc2c(F)c(Nc3ccc(Br)cc3Cl)c(C(=O)NOCCO)cc21 + CCN1CCN(Cc2ccc(Nc3ncc(F)c(-c4cc(F)c5nc(C)n(C(C)C)c5c4)n3)nc2)CC1
46%

Origin of measurements: PubChem BioAssay AID2060331
